Recorded values, source PubChem BioAssay (NCI).

Test system: HOP-62 NSCLC
Assay: NCI tumour cell line growth inhibition, 48 h; in the data active = GI50 below about 0.43 µM; inactive = the rest
Response enum: active, inactive

Answered cases to consult:
# compound, label_class
measured = [
    ("COc1cc2c(cc1OCCCN1CCN(CCCOc3cc4c(cc3OC)C(=O)N3C[C@H](F)C[C@H]3C=N4)CC1)N=C[C@@H]1C[C@@H](F)CN1C2=O", "active"),
    ("O=C1/C(=C/c2ccc([N+](=O)[O-])s2)Oc2ccc(Br)cc21", "inactive"),
]

Q) Lab log entry: "Cc1ccc(-c2csc3ncnc(Nc4cccc(O)c4)c23)cc1" — outcome as called in the assay?
A) inactive

====

For each entry below, report its TGI value.
Tested on: T-47D breast
Assay: NCI tumour cell line growth inhibition, 48 h

# compound, system_under_test, TGI
records = [
    ("Clc1nc(NC23CC4CC(CC(C4)C2)C3)nc(NC23CC4CC(CC(C4)C2)C3)n1", "T-47D breast", "> 89 µM"),
    ("O=C(O)CC(CC(=O)O)n1cccc1", "T-47D breast", "> 100 µM"),
    ("C=CCC(NCc1ccccc1)c1cn(C(=O)OCC)c2ccccc12 (stereo unspecified)", "T-47D breast", "> 100 µM"),
    ("CN(C)/C=N/S(=O)(=O)c1nn2c(C=O)c(-c3ccc(-c4ccccc4)cc3)nc2s1", "T-47D breast", "5.57 µM"),
    ("CC1(C)COC(c2cccc(C(=O)c3ccccc3)c2)=N1", "T-47D breast", "> 100 µM"),
]

State the recorded TGI for every item in the following list.
1. C=C1C(=O)OC2/C=C(\CO)C3OC3C3OC3(C)CC(OC(=O)/C(=C/C)COC(C)=O)C12 (stereo unspecified)
2. COc1ccc2c(c1)C1Oc3ccccc3CC1CO2 (stereo unspecified)
3. c1ccc(CSCCC(SCc2ccccc2)SCc2ccccc2)cc1
4. CC(=O)OC1C(C)OC(Oc2c(-c3ccc(O)cc3)oc3cc(O)cc(O)c3c2=O)C(O)C1OC(C)=O (stereo unspecified)
5. Cc1ncc2c(n1)CCC1=C2OS(=O)(=O)CC1N(C)C (stereo unspecified)
6. Nc1ccccc1SC(CC(=O)c1ccccc1)c1c(Cl)cccc1Cl (stereo unspecified)

A)
1: 9.7 µM; 2: > 100 µM; 3: > 10 µM; 4: 68.6 µM; 5: > 100 µM; 6: 13.4 µM
